- SYSTEM NAME: UniProt:P18031
- Sequence (P18031 whole entry): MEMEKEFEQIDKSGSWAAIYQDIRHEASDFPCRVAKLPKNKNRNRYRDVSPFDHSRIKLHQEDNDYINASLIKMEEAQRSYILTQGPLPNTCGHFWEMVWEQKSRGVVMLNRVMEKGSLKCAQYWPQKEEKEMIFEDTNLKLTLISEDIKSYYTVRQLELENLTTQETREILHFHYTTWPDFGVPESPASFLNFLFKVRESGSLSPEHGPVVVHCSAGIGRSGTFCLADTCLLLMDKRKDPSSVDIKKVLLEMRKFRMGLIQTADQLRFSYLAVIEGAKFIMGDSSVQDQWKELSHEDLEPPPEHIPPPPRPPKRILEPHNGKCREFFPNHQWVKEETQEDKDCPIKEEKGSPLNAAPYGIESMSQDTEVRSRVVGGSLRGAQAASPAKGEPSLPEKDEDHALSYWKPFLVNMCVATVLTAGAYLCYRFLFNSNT
- PROTOCOL NOTES: Inhibition of PTP1B (unknown origin) at 24.2 uM
The source made the active and inactive calls. No cut-off for these calls is given here.
READOUT: inhibition

[
  {
    "SAMPLE SMILES": "CC[C@]12CCCC(C)(C)[C@@H]1CC[C@]1(C)[C@@H]2C[C@@H](O)[C@]2(C)C3=C(CC[C@@H]12)[C@H](C)OC3=O",
    "VALUE OBSERVED": "42%"
  },
  {
    "SAMPLE SMILES": "CC[C@]12CCCC(C)(C)[C@@H]1CC[C@]1(C)[C@@H]2C[C@@H](O)[C@]2(C)C3=C(CC[C@@H]12)[C@@H](C)OC3=O",
    "VALUE OBSERVED": "42%"
  },
  {
    "SAMPLE SMILES": "CC[C@@]1(C)CCC[C@]2(C)[C@H]3C[C@@H](O)[C@]4(C)C5=C(CC[C@H]4[C@]3(C)CC[C@@H]12)[C@H](C)OC5=O",
    "VALUE OBSERVED": "inactive"
  },
  {
    "SAMPLE SMILES": "CC[C@@]1(C)CCC[C@]2(C)[C@H]3C[C@@H](O)[C@]4(C)C5=C(CC[C@H]4[C@]3(C)CC[C@@H]12)[C@@H](C)OC5=O",
    "VALUE OBSERVED": "inactive"
  }
]
